These measurements were taken from paper PMC5936891.

Measurement record for U87 (glioblastoma); quantity recorded: GI50.

molecule_smiles	system_name	GI50
CCCCc1ccc(C2=C(OC)C(=O)C(c3ccc4ccccc4c3)=C(OC)C2=O)cc1	U87 (glioblastoma)	42 µM
COC1=C(c2ccc3ccccc3c2)C(=O)C(OC)=C(c2cccc3ccccc23)C1=O	U87 (glioblastoma)	26 µM
COC1=CC(=O)C(OC)=C(c2ccc(OC)c(OC)c2)C1=O	U87 (glioblastoma)	9.5 µM
COC1=CC(=O)C(OC)=C(c2ccc(C)cc2)C1=O	U87 (glioblastoma)	> 50 µM

====

test system: A2780 (ovarian carcinoma); experiment: MTT in vitro growth inhibition assay, A2780; type: cell-based; conditions: Homo sapiens, 25 µM of drug, 72 h, read-out: Percentage of Cell Growth Inhibition A2780
Measured inhibition at 25 µM values are reported for all entries that follow.

compound	inhibition at 25 µM / %
COC1=CC(=O)C(OC)=C(c2ccc(CO)cc2)C1=O [compound 17]	53
COC1=CC(=O)C(OC)=C(c2ccc(-c3ccccc3)cc2)C1=O [compound 27]	70
COC1=CC(=O)C(OC)=C(c2ccccc2-c2ccccc2)C1=O [compound 29]	77
CCCCc1ccc(C2=C(OC)C(=O)C(c3ccc4ccccc4c3)=C(OC)C2=O)cc1 [compound 35]	66
COC1=CC(=O)C(OC)=C(c2ccccc2OC)C1=O [compound 18]	33
COC1=CC(=O)C(OC)=C(c2ccccc2)C1=O [compound 12]	75
CCCCc1ccc(C2=C(OC)C(=O)C=C(OC)C2=O)cc1 [compound 15]	39

====

tested on: MIA (pancreatic carcinoma); experiment: MTT in vitro growth inhibition assay, MIA; type: cell-based; conditions: 25 µM of drug, 72 h, read-out: Percentage of Cell Growth Inhibition MIA
metric: inhibition at 25 µM (%)

molecule_smiles	qualifying_sign	measured
COC1=C(c2ccc3ccccc3c2)C(=O)C(OC)=C(c2ccccc2-c2ccccc2)C1=O	=	78
COC1=CC(=O)C(OC)=C(c2ccc(CO)cc2)C1=O	<	10
COC1=CC(=O)C(OC)=C(c2ccc(C)cc2)C1=O	<	10
COC1=C(c2ccccc2)C(=O)C(OC)=C(c2ccccc2)C1=O	=	63
CCCCc1ccc(C2=C(OC)C(=O)C(c3ccc4ccccc4c3)=C(OC)C2=O)cc1	=	61

====

tested on: U87 (glioblastoma)
metric: log10 of GI50 (log10 of the value in µM)

molecule_smiles	system_name	metric	measured
COC1=CC(=O)C(OC)=C(c2ccc(CO)cc2)C1=O	U87 (glioblastoma)	log10 of GI50	1.65
COC1=CC(=O)C(OC)=C(c2ccccc2)C1=O	U87 (glioblastoma)	log10 of GI50	1.67
COC1=C(c2ccc3ccccc3c2)C(=O)C(OC)=C(c2ccccc2-c2ccccc2)C1=O	U87 (glioblastoma)	log10 of GI50	1.30
CCCNC1=CC(=O)C(NCCC)=C(c2ccccc2-c2ccccc2)C1=O	U87 (glioblastoma)	log10 of GI50	0.71
COC1=C(c2ccc3ccccc3c2)C(=O)C(OC)=C(c2ccc(OC)cc2OC)C1=O	U87 (glioblastoma)	log10 of GI50	1.34
COC1=CC(=O)C(OC)=C(c2ccc(-c3ccccc3)cc2)C1=O	U87 (glioblastoma)	log10 of GI50	1.28
COC1=C(c2ccccc2)C(=O)C(OC)=C(c2ccccc2)C1=O	U87 (glioblastoma)	log10 of GI50	1.48
CCCNC1=C(c2ccc3ccccc3c2)C(=O)C(NCCC)=C(c2cccc3ccccc23)C1=O	U87 (glioblastoma)	log10 of GI50	0.32
COC1=C(c2cccc(-c3ccccc3)c2)C(=O)C(OC)=C(c2ccc3ccccc3c2)C1=O	U87 (glioblastoma)	log10 of GI50	1.15

====

Measurement record for Du145 (prostate carcinoma); quantity recorded: log10(GI50).
metric: log10(GI50) (log10 of the value in µM)

molecule_smiles	log10(GI50)
COC1=C(c2ccc3ccccc3c2)C(=O)C(OC)=C(c2ccccc2-c2ccccc2)C1=O	1.32
CCCNC1=C(c2ccc3ccccc3c2)C(=O)C(NCCC)=C(c2cccc3ccccc23)C1=O	-0.80
CCCCc1ccc(C2=C(OC)C(=O)C(c3ccc4ccccc4c3)=C(OC)C2=O)cc1	1.28
COC1=C(c2cccc(-c3ccccc3)c2)C(=O)C(OC)=C(c2ccc3ccccc3c2)C1=O	0.99
COC1=CC(=O)C(OC)=C(c2ccc(-c3ccccc3)cc2)C1=O	0.61
COC1=C(c2ccc3ccccc3c2)C(=O)C(OC)=C(c2ccc(OC)cc2OC)C1=O	1.43
COC1=CC(=O)C(OC)=C(c2ccc(OC)c(OC)c2)C1=O	1.11
CCCNC1=CC(=O)C(NCCC)=C(c2ccccc2-c2ccccc2)C1=O	0.28
COC1=C(c2ccc3ccccc3c2)C(=O)C(OC)=C(c2cccc3ccccc23)C1=O	1.49

====

Measured melting point values are reported for all entries that follow.

compound	melting point
CCCNC1=C(c2ccc3ccccc3c2)C(=O)C(NCCC)=C(c2cccc3ccccc23)C1=O [compound 43]	210 to 213 °C
CCCNC1=C(c2ccccc2)C(=O)C(NCCC)=C(c2cccc3ccccc23)C1=O [compound 42]	226 to 228 °C
COC1=CC(=O)C(OC)=C(c2cccc(-c3ccccc3)c2)C1=O [compound 28]	172 to 174 °C
COC1=C(c2ccc3ccccc3c2)C(=O)C(OC)=C(c2ccccc2-c2ccccc2)C1=O [compound 36]	113 to 115 °C
CCCCc1ccc(C2=C(OC)C(=O)C(c3ccc4ccccc4c3)=C(OC)C2=O)cc1 [compound 35]	134 to 136 °C
COC1=CC(=O)C(OC)=C(c2ccc(CO)cc2)C1=O [compound 17]	116 to 118 °C
COC1=C(c2ccc3ccccc3c2)C(=O)C(OC)=C(c2ccc(OC)cc2OC)C1=O [compound 34]	159 to 161 °C
COC1=CC(=O)C(OC)=C(c2ccccc2OC)C1=O [compound 18]	162 to 164 °C
COC1=CC(=O)C(OC)=C(c2cccc(OC)c2OC)C1=O [compound 22]	122 to 125 °C
CCCNC1=CC(=O)C(NCCC)=C(c2ccccc2-c2ccccc2)C1=O [compound 41]	177 to 179 °C
COC1=CC(=O)C(OC)=C(c2cccc3ccccc23)C1=O [compound 25]	134 to 137 °C
COC1=C(c2ccccc2)C(=O)C(OC)=C(c2cccc3ccccc23)C1=O [compound 32]	168 to 170 °C
COC1=C(c2ccc3ccccc3c2)C(=O)C(OC)=C(c2cccc3ccccc23)C1=O [compound 33]	163 to 165 °C
COC1=C(c2cccc(-c3ccccc3)c2)C(=O)C(OC)=C(c2ccc3ccccc3c2)C1=O [compound 37]	119 to 121 °C
COC1=CC(=O)C(OC)=C(c2ccc3ccccc3c2)C1=O [compound 24]	137 to 139 °C
CCCCc1ccc(C2=C(OC)C(=O)C(c3ccc(CCCC)cc3)=C(OC)C2=O)cc1 [compound 31]	177 to 179 °C
COC1=CC(=O)C(OC)=C(c2ccccc2)C1=O [compound 12]	122 to 124 °C
CCCNC1=CC(=O)C(NCCC)=C(c2cccc3ccccc23)C1=O [compound 39]	134 to 137 °C

====

test system: MIA (pancreatic carcinoma); test: MTT in vitro growth inhibition assay, MIA; format: cell-based; settings: 25 µM of drug, 72 h, read-out: Percentage of Cell Growth Inhibition MIA
Label NO if inhibition at 25 µM falls below 20%; label YES in every other case.

molecule_smiles	qualitative_label
COC1=CC(=O)C(OC)=C(c2ccc(OC)cc2OC)C1=O	NO
COC1=CC(=O)C(OC)=C(c2ccc(-c3ccccc3)cc2)C1=O	YES
COC1=CC(=O)C(OC)=C(c2cccc3ccccc23)C1=O	NO
COC1=CC(=O)C(OC)=C(c2cccc(OC)c2OC)C1=O	YES
COC1=CC(=O)C(OC)=C(c2cc(OC)ccc2OC)C1=O	NO
CCCNC1=CC(=O)C(NCCC)=C(c2cccc3ccccc23)C1=O	YES
COC1=C(c2cccc(-c3ccccc3)c2)C(=O)C(OC)=C(c2ccc3ccccc3c2)C1=O	YES
COC1=CC(=O)C(OC)=C(c2ccc3ccccc3c2)C1=O	NO
COC1=C(c2ccccc2)C(=O)C(OC)=C(c2cccc3ccccc23)C1=O	NO

====

Measurement record for SMA (spontaneous murine astrocytoma); quantity recorded: GI50.

molecule_smiles	quantity_unit	GI50
CCCCc1ccc(C2=C(OC)C(=O)C(c3ccc4ccccc4c3)=C(OC)C2=O)cc1	µM	8.2
CCCNC1=CC(=O)C(NCCC)=C(c2ccccc2-c2ccccc2)C1=O	µM	3.3
COC1=C(c2ccc3ccccc3c2)C(=O)C(OC)=C(c2ccccc2-c2ccccc2)C1=O	µM	10
COC1=CC(=O)C(OC)=C(c2ccc(OC)cc2OC)C1=O	µM	33

====

test system: SMA (spontaneous murine astrocytoma)
Measured GI50 values are reported for all entries that follow.
metric: GI50 (µM)

molecule_smiles	measured
COC1=CC(=O)C(OC)=C(c2ccc(CO)cc2)C1=O	37
COC1=C(c2ccc3ccccc3c2)C(=O)C(OC)=C(c2ccc(OC)cc2OC)C1=O	9.7
COC1=CC(=O)C(OC)=C(c2ccc(O)cc2)C1=O	50
COC1=CC(=O)C(OC)=C(c2ccccc2)C1=O	29
